assay: Selectivity index, ratio of IC50 for human MCF-10A cells to IC50 for human MDA-MB-468 cells; details: MCF-10A cells versus MDA-MB-468 cells
Endpoint Name: selectivity ratio

Examples with answers:
Form: compound = `Cc1nc2c(cnn2-c2ccccc2)c(=O)n1-c1ccc(NC(=O)c2ccccc2)cc1` ; selectivity ratio = 2.05

Note to self: selectivity ratio recorded for `Cc1nc2c(cnn2-c2ccccc2)c(=O)n1-c1ccc(NC(=O)c2ccc(F)cc2)cc1` was 6.81

// selectivity ratio lookup, compound = `Cc1ccc(C(=O)Nc2ccc(-n3c(C)nc4c(cnn4-c4ccccc4)c3=O)cc2)cc1` , result: 3.63

New cases:
# compound `Cc1nc2c(cnn2-c2ccccc2)c(=O)n1-c1ccc(NC(=O)c2ccc(Cl)cc2)cc1` ; its selectivity ratio = 3.24

Attribution: ChEMBL document CHEMBL5356993
